target-under-test: human DGKζ (Homo sapiens)
Construct: TVMV protease cleavage site (C); Hexa-His (C); made in house; host or cells: Sf9 insect cells (baculovirus, Bac-to-Bac)
Sequence (Q13574 with tags, fused parts or gaps isoform Q13574-4): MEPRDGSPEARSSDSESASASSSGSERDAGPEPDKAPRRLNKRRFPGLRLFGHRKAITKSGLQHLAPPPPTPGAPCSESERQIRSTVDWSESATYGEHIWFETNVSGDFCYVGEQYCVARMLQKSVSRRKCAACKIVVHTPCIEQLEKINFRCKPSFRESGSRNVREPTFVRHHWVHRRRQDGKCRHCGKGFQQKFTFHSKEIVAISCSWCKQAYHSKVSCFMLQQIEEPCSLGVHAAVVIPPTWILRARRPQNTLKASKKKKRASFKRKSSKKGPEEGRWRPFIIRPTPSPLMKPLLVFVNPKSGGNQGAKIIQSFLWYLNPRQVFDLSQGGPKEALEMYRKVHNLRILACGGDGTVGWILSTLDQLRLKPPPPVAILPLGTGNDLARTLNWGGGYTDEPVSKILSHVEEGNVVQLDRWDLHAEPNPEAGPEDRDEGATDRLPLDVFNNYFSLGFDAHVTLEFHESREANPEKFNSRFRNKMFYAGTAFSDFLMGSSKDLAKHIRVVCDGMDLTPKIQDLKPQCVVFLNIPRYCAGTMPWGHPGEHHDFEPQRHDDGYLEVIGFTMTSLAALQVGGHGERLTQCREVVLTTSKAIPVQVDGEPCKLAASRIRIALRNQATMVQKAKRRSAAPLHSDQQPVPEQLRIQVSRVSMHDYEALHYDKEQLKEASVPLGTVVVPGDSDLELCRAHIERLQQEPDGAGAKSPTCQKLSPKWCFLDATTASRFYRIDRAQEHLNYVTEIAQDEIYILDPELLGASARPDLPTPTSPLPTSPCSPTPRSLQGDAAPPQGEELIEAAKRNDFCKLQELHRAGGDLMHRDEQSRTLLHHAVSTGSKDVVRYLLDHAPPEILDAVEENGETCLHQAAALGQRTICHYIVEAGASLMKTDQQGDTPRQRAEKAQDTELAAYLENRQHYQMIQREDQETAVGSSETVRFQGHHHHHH
method-notes: DGKζ LIPGLO assay (extruded liposome substrate), in vitro DGK inhibition
Type: biochemical
condition-summary: liposome (LIPGLO) assay; read-out: DGKz LIPGLO IC50
parameter-measured: pIC50
// pIC50 here means minus log10 of the molar concentration (mol/L)

Param readout = pIC50; param system = human DGKζ (Homo sapiens); param query = CC[C@H]1CN(C(c2ccc(F)cc2)c2ccc(C(F)(F)F)cn2)[C@H](C)CN1c1cc(=O)n(C)c2ccc(C#N)nc12 (single isomer, unassigned) [Example 1132] ; response: value
6.10

CC(c1cc(F)c(F)cc1Cl)N1C[C@H](C)N(c2cc(=O)n(C)c3ccc(C#N)nc23)C[C@H]1C (stereo partly drawn) ?
4.85

CC[C@@H]1CN(c2cc(=O)n(C)c3ccc(C#N)nc23)[C@@H](C)CN1C(C)c1ccc(F)c(F)c1 (single isomer, unassigned) [Example 1091] ?
6.96

Source of measurements: patent US10669272B2
